Where do these numbers come from? They come from patent US20240287172A1.

# targetEntity: T1, human iRhom2, endogenously expressed (human, UniProt Q6PJF5 1-856)
# T1 sequence: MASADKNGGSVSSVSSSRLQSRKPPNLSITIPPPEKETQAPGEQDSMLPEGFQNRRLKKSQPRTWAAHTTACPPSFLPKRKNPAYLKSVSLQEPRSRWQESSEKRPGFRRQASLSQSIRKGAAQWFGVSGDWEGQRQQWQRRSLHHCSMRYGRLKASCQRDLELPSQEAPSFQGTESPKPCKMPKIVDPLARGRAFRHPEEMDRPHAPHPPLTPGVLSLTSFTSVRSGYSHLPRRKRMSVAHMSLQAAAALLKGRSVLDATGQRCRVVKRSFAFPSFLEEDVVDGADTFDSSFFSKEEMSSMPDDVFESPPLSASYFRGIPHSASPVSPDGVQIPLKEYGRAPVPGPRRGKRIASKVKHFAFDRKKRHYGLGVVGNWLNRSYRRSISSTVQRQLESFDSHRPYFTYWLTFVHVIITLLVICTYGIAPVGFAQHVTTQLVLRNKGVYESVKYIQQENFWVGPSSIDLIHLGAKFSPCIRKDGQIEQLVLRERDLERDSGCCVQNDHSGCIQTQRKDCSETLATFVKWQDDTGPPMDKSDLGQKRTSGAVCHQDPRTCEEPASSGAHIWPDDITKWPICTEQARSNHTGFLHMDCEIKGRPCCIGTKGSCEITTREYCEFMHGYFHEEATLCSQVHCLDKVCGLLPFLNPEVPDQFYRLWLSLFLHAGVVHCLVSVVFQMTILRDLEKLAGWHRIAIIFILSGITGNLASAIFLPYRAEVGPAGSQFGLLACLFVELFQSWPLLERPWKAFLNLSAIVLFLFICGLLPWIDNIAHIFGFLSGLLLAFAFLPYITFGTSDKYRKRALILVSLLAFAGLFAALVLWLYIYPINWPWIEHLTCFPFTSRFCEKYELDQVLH
# method: cell-based or functional assay
measuredMetric: PMA-induced IL-6R release from U-937 cells, percent inhibition, 3 µg/ml (%)

chimeric antibody 34 (antibody, V domains shown) VH: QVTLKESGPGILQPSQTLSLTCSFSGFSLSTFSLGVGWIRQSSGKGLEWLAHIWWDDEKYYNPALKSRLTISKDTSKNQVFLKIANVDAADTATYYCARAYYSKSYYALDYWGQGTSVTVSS VL: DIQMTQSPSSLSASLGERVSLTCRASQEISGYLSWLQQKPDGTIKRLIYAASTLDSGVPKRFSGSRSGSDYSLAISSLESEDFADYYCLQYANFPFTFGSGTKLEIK : 82.8
